assay.target: B. subtilis Pol IIIC (Bacillus subtilis)
Construct: made in house
Sequence (P13267 whole entry): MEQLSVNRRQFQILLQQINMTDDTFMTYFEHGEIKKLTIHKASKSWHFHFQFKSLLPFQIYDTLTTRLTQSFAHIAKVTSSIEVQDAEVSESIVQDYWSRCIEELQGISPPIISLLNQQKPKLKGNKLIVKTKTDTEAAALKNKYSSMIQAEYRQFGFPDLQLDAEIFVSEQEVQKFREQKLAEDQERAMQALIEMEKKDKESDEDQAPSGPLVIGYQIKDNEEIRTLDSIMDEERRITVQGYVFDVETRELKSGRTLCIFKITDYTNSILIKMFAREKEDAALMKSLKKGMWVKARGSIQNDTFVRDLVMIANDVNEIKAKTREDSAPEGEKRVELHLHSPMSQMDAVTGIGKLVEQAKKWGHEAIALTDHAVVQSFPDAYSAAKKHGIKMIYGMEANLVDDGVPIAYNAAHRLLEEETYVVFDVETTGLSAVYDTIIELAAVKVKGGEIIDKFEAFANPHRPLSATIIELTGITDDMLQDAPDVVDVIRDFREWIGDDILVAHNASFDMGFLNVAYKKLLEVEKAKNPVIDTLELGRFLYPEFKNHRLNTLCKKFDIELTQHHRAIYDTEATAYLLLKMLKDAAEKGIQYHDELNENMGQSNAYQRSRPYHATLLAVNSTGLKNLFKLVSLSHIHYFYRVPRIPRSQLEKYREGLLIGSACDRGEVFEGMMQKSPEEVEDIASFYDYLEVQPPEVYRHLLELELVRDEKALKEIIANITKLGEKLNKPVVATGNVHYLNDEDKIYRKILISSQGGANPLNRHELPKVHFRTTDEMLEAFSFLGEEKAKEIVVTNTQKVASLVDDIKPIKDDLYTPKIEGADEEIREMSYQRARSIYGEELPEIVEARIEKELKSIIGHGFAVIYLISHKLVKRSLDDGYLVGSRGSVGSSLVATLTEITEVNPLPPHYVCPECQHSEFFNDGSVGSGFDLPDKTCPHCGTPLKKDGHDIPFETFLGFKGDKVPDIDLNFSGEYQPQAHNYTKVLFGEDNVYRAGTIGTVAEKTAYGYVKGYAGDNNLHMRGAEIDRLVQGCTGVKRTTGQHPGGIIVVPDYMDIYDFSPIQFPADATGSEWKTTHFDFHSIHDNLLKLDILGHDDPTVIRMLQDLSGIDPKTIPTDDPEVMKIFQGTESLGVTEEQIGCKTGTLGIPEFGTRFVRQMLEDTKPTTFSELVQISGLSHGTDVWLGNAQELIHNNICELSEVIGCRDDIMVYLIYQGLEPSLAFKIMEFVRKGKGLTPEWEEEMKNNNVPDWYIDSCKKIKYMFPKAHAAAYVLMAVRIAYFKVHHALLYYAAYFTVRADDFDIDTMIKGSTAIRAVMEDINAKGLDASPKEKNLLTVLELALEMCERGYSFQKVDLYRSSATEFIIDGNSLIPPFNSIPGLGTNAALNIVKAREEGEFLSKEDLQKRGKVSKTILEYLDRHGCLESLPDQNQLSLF
procedure.details: Polymerase IIIC (Pol IIIC) assay, determination of Ki values
Type: biochemical
setup.conditions: Ki (µM) Pol IIIC, assay in absence of dGTP or dATP; Ki is the concentration that reduces control polymerase IIIC activity by 50 percent
experimental.endpoint: log10(Ki) (log10 of the value in µM)
Could you please treat all values as log10 of Ki in µM?

CCc1cc(Nc2cc(=O)n(CCCCN3CCN(c4cc5c(cc4F)c(=O)c(C(=O)O)cn5C4CC4)C(C)C3)c(=O)[nH]2)ccc1C (stereo not drawn); -1.59

Just so you know, measured log10(Ki) for CCc1cc(Nc2cc(=O)n(CCCCN3CCN(c4nc5c(cc4F)c(=O)c(C(=O)O)cn5CC)CC3)c(=O)[nH]2)ccc1C came out at -1.74

Value of log10(Ki) reported for the compound CCc1cc(Nc2cc(=O)n(CCCCN3CCN(c4c(F)cc5c(=O)c(C(=O)O)cn(C6CC6)c5c4F)CC3C)c(=O)[nH]2)ccc1C (stereo not drawn) is -1.72

Reported log10(Ki) ( CC1CN(c2c(F)cc3c(=O)c(C(=O)O)cn(C4CC4)c3c2F)CCN1CCCCn1c(=O)cc(Nc2ccc3c(c2)CCC3)[nH]c1=O (stereo not drawn) ) = -1.80

In plain terms, CCc1cc(Nc2cc(=O)n(CCCCCNC3CCN(c4cc5c(cc4F)c(=O)c(C(=O)O)cn5C4CC4)C3)c(=O)[nH]2)ccc1C (stereo not drawn) has a documented log10(Ki) of -1.39

Looking up Cc1ccc(Nc2cc(=O)n(CCCCN3CCN(c4c(F)cc5c(=O)c(C(=O)O)cn(C6CC6)c5c4F)C[C@@H]3C)c(=O)[nH]2)cc1C , I found its log10(Ki) recorded as -1.52

log10(Ki) for CCc1cc(Nc2cc(=O)n(CCCCN3CCN(c4cc5c(cc4F)c(=O)c(C(=O)O)cn5-c4ccc(F)cc4F)CC3)c(=O)[nH]2)ccc1C is -1.74
